# Tested on: HOP-62 NSCLC
# measurement.notes: NCI tumour cell line growth inhibition, 48 h
readout.kind: TGI

CC1(C)C2CCC1(C)C(N/C(=C(/C(Cl)=C(Cl)Cl)[N+](=O)[O-])n1nnc3ccccc31)C2 (stereo unspecified): 67 µM
O=C1CCCCCCCCCCC(=O)C2CCOCCOCCOCCC1Cc1cccc(n1)C2: > 100 µM
C\C=C/C=C/C=C/C(=O)O: > 100 µM
Cc1ccccc1CN1CC2=C(CCN(Cc3ccccc3)C2=O)N2CCN=C12: > 100 µM
O=c1[nH]nc(-c2ccc([N+](=O)[O-])cc2)n1/N=C/c1ccc([N+](=O)[O-])cc1: > 100 µM

Note: attention shifts to another entry.
Lookup: Request the reported TGI associated with CC1(CCc2ccccc2)CC1(Br)Br (stereo unspecified)
Found: > 100 µM

---

# System: SW-620 colon
# measurement.notes: NCI tumour cell line growth inhibition, 48 h
readout.kind: GI50

Lookup: I'd like to know its GI50. The molecule in question is N=C1c2nc3n(c2C(=O)c2nc4n(c21)CCCC4)CCCC3
Found: 3.8 µM

---

Measured TGI accompanies every entry in the list below.
# System: SK-MEL-5 melanoma
# measurement.notes: NCI tumour cell line growth inhibition, 48 h
Answer with a number only, understood to be in µM.

See these solved cases before continuing.
Cc1c(C#N)c2nnn(-c3ccc([N+](=O)[O-])cc3)c(=O)n2c1-c1ccccc1: 25.2
CC(=O)[C@H]1CC[C@H]2[C@@H]3CCC4=CC(=O)CC[C@]4(C)[C@H]3CC[C@]12C: 24.8

Lookup: Using the record for C=C1C[C@@H]2C/C=C/C(=O)C/C(C)=C\C=C\C(=O)O[C@H](C=O)C/C(C)=C/[C@H](C1)O2 , report its TGI.
Found: 16.6

Lookup: Request: CN(C)CC(/C(Cc1ccccc1)=N\NC(=O)c1ccncc1)c1ccccc1 (stereo not given)
Found: 46.2

Lookup: Now the same for COc1cc(CCNC2=CC(=O)c3cccnc3C2=O)ccc1O
Found: 1.08

Lookup: Next entry: COC(=O)c1c(C)ccc2c(O)c3c(cc12)C(=O)c1c2c(cc(O)c1C3=O)C1(C)OC(C)(O2)C(O)C(N(C)C)C1O (stereo not given)
Found: 17.3

---

# System: NCI-H23 lung
# measurement.notes: NCI tumour cell line growth inhibition, 48 h; in the data active = GI50 below about 0.43 µM; inactive = the rest
Select the correct class. Options are True = active, False = inactive and nothing else.

COc1cc(NC(=O)c2cc(OC)c3ccn(C)c3c2)cc2c1C[C@]1(C)CC[C@@H](O)C(C)(C)[C@H]1O2: False
O=C(Nc1ccc(-n2cc(-c3ccncc3)c(-c3ccc(Cl)c(O)c3)n2)cc1)Nc1cc(C(F)(F)F)cc(C(F)(F)F)c1: False

# evaluate next
Lookup: Please let me know the test result on file for O=[N+]([O-])c1ccc(-c2nc(N(CCO)CCO)c3ccccc3n2)o1 .
Found: True

---

# Test system: NCI/ADR-RES ovarian
# measurement.notes: NCI tumour cell line growth inhibition, 48 h
Recorded TGI, one value per entry.

Lookup: Which TGI value belongs to O=C1C(=Cc2ccco2)C(=O)C2CCCCC12 (stereo unspecified) ?
Found: > 100 µM

Lookup: Same lookup for O=c1[nH]c2nccnc2c2c([N+](=O)[O-])cccc12 , please.
Found: > 100 µM

Lookup: Fc1ccc(Oc2nccc(-c3c(-c4ccc(F)cc4)ncn3C3CCNCC3)n2)cc1 ?
Found: > 25 µM

Lookup: Please give the result for CCOP(=O)(CC1CC(O)(CNc2cc(Cl)nc(N)n2)C1)OCC (stereo unspecified) too.
Found: > 100 µM
